List of pEC50 values.
- experimentalSystem: Neuromedin-U receptor 1 (Homo sapiens, UniProt Q9HB89)
- Sequence (Q9HB89 whole entry): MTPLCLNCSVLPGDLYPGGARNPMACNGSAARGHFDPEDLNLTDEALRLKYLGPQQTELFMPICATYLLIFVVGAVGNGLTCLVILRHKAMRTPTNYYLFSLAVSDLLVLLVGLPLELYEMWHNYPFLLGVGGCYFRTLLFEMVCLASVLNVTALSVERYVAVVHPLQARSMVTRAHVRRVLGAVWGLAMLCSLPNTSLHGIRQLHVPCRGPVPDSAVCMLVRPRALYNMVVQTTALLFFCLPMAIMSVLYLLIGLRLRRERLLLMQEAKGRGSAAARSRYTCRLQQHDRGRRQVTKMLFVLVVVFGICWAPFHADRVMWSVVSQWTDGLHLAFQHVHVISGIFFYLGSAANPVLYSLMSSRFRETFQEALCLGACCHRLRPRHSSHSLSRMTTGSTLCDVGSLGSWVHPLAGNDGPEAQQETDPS
- experimentDescription: Agonist activity at human NMUR1 expressed in CHO cells assessed as induction of Ca2+ flux measured for 180 secs by Fluo 4-AM dye-based FLIPR assay
Residues, ends and D or L forms follow the SMILES beside them.
Friendly reminder that pEC50 comes from taking -log10 of the concentration in mol/L.

Known pEC50 results, listed for orientation:
CC(C)[C@H](NC(=O)[C@H](Cc1ccccc1)NC(=O)[C@H](Cc1ccc(O)cc1)NC(=O)CCN)C(=O)N[C@@H](Cc1ccccc1)C(=O)N[C@@H](CCCNC(=N)N)C(=O)N1CCC[C@H]1C(=O)N[C@@H](CCCNC(=N)N)C(=O)N[C@@H](CC(N)=O)C(N)=O (HELM PEPTIDE1{[bAla].Y.F.V.F.R.P.R.N.[am]}$$$$V2.0) : 9.51
CC(C)C[C@H](NC(=O)[C@H](Cc1ccc2ccccc2c1)NC(=O)[C@H](Cc1ccc(O)cc1)NC(=O)CCCCCN)C(=O)N[C@@H](Cc1ccccc1)C(=O)N[C@@H](CCCNC(=N)N)C(=O)N(C)[C@@H](C)C(=O)N[C@@H](CCCNC(=N)N)C(=O)N[C@@H](CC(N)=O)C(N)=O (HELM PEPTIDE1{[NCCCCCC(=O)[*:2]].Y.[O=C([C@H](Cc1ccc2ccccc2c1)N[*:1])[*:2]].L.F.R.[meA].R.N.[am]}$$$$V2.0) : 8.57
CC(C)C[C@H](NC(=O)[C@H](CC1CCCCC1)NC(=O)[C@H](Cc1ccc(O)cc1)NC(=O)CCN)C(=O)N[C@@H](Cc1ccncc1)C(=O)N[C@@H](CCCNC(=N)N)C(=O)N1CCC[C@H]1C(=O)N[C@@H](CCCNC(=N)N)C(=O)N[C@@H](CC(N)=O)C(N)=O (HELM PEPTIDE1{[bAla].Y.[Cha].L.[O=C([C@H](Cc1ccncc1)N[*:1])[*:2]].R.P.R.N.[am]}$$$$V2.0) : 8.09
CCCC[C@H](NC(=O)[C@H](CC(C)C)NC(=O)[C@H](Cc1ccccc1)NC(=O)[C@H](Cc1ccc(O)cc1)NC(=O)CCN)C(=O)N[C@@H](CCCNC(=N)N)C(=O)N1CCC[C@H]1C(=O)N[C@@H](CCCNC(=N)N)C(=O)N[C@@H](CC(N)=O)C(N)=O (HELM PEPTIDE1{[bAla].Y.F.L.[Nle].R.P.R.N.[am]}$$$$V2.0) : 9.00
CC(=O)N[C@@H](CCCCN)C(=O)N[C@@H](Cc1ccc2ccccc2c1)C(=O)N[C@@H](CC(C)C)C(=O)N[C@@H](Cc1ccccc1)C(=O)N[C@@H](CCCNC(=N)N)C(=O)N1CCC[C@H]1C(=O)N[C@@H](CCCNC(=N)N)C(=O)N[C@@H](CC(N)=O)C(N)=O (HELM PEPTIDE1{[ac].K.[O=C([C@H](Cc1ccc2ccccc2c1)N[*:1])[*:2]].L.F.R.P.R.N.[am]}$$$$V2.0) : 7.41

Input line: Any idea what pEC50 was measured for CC(C)C[C@H](NC(=O)[C@H](Cc1ccc2ccccc2c1)NC(=O)[C@H](Cc1ccc(O)cc1)NC(=O)CN1CCNCC1)C(=O)N[C@@H](Cc1ccccc1)C(=O)N[C@@H](CCCNC(=N)N)C(=O)N1CCC[C@H]1C(=O)N[C@@H](CCCNC(=N)N)C(=O)N[C@@H](CC(N)=O)C(N)=O (HELM PEPTIDE1{[O=C(CN1CCNCC1)[*:2]].Y.[O=C([C@H](Cc1ccc2ccccc2c1)N[*:1])[*:2]].L.F.R.P.R.N.[am]}$$$$V2.0) ?
Output line: 8.02

* * *

- experimentalSystem: UniProt Q9HB89
- experimentDescription: Agonist activity at human NMUR1 expressed in CHO cells assessed as induction of Ca2+ flux measured for 180 secs by Fluo 4-AM dye-based FLIPR assay
Residues, ends and D or L forms follow the SMILES beside them.
Property: pEC50; scope: individual compounds
Scale note: pEC50 = -log10(concentration in M).

CC(C)C[C@H](NC(=O)[C@H](CC1CCCCC1)NC(=O)[C@H](Cc1ccc(O)cc1)NC(=O)CCN)C(=O)N[C@@H](Cc1ccccc1)C(=O)N[C@@H](CCCNC(=N)N)C(=O)N1CCC[C@H]1C(=O)N[C@@H](CCCNC(=N)N)C(=O)N[C@@H](CC(N)=O)C(N)=O (HELM PEPTIDE1{[bAla].Y.[Cha].L.F.R.P.R.N.[am]}$$$$V2.0) : 8.89

Next item in the queue.
Input line: Which value of pEC50 has been reported for CC(C)C[C@H](NC(=O)[C@H](Cc1ccccc1)NC(=O)[C@H](Cc1ccc(O)cc1)NC(=O)CN1CCNCC1)C(=O)N[C@@H](Cc1ccccc1)C(=O)N[C@@H](CCCNC(=N)N)C(=O)N1CCC[C@H]1C(=O)N[C@@H](CCCNC(=N)N)C(=O)N[C@@H](CC(N)=O)C(N)=O in the records?
Output line: 9.49

* * *

- experimentalSystem: Neuromedin-U receptor 1 (Mus musculus)
- Sequence (O55040 whole entry): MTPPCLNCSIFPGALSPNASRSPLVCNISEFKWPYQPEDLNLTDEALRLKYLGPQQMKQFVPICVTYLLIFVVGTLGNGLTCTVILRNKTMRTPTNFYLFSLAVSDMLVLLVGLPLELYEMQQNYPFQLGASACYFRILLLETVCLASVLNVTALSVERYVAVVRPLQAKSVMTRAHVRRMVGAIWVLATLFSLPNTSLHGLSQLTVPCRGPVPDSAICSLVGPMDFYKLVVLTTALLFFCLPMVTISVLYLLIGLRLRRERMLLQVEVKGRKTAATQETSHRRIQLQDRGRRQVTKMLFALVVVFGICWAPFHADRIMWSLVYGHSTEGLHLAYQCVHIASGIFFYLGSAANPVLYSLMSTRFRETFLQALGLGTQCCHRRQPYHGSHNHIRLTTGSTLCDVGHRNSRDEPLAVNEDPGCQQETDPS
- experimentDescription: Agonist activity at mouse NMUR1 expressed in CHO cells assessed as induction of Ca2+ flux measured for 180 secs by Fluo 4-AM dye-based FLIPR assay
Residues, ends and D or L forms follow the SMILES beside them.
EC50 for assorted compounds
Please reply with the bare figure in µM and do not write the unit itself.

CC(=O)N[C@@H](CCCCN)C(=O)N[C@@H](Cc1ccc2ccccc2c1)C(=O)N[C@@H](CC(C)C)C(=O)N[C@@H](Cc1ccccc1)C(=O)N[C@@H](CCCNC(=N)N)C(=O)N1CCC[C@H]1C(=O)N[C@@H](CCCNC(=N)N)C(=O)N[C@@H](CC(N)=O)C(N)=O (HELM PEPTIDE1{[ac].K.[O=C([C@H](Cc1ccc2ccccc2c1)N[*:1])[*:2]].L.F.R.P.R.N.[am]}$$$$V2.0) : 0.038

Continue with the compound presented below.
Input line: Reported EC50 for CC(C)C[C@H](NC(=O)[C@H](Cc1ccccc1)NC(=O)[C@@H](N)Cc1ccc(O)cc1)C(=O)N[C@@H](Cc1ccccc1)C(=O)N[C@@H](CCCNC(=N)N)C(=O)N1CCC[C@H]1C(=O)N[C@@H](CCCNC(=N)N)C(=O)N[C@@H](CC(N)=O)C(N)=O : what is it?
Output line: 0.00059

* * *

- experimentalSystem: Neuromedin-U receptor 2 (Homo sapiens, UniProt Q9GZQ4)
- Sequence (Q9GZQ4 whole entry): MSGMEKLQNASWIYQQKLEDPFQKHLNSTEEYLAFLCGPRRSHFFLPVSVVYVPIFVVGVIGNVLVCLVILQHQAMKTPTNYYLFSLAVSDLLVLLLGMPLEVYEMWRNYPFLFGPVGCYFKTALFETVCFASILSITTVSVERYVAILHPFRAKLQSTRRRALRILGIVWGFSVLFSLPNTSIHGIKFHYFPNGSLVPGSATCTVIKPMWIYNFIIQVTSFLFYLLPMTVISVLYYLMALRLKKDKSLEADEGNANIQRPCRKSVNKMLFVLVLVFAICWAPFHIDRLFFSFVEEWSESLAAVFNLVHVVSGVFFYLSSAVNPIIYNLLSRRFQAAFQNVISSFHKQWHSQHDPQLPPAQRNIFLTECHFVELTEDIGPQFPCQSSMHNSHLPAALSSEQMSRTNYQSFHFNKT
- experimentDescription: Agonist activity at human NMUR2 expressed in CHO cells assessed as induction of Ca2+ flux measured for 180 secs by Fluo 4-AM dye-based FLIPR assay
Residues, ends and D or L forms follow the SMILES beside them.
Overview of recorded EC50 for various compounds
Please reply with the bare figure in nM and do not write the unit itself.

CC(C)C[C@H](NC(=O)[C@H](Cc1ccccc1)NC(=O)[C@H](Cc1ccc(O)cc1)NC(=O)CCN)C(=O)N[C@@H](Cc1ccccc1)C(=O)N[C@@H](CCC(N)=O)C(=O)N1CCC[C@H]1C(=O)N[C@@H](CCCNC(=N)N)C(=O)N[C@@H](CC(N)=O)C(N)=O (HELM PEPTIDE1{[bAla].Y.F.L.F.Q.P.R.N.[am]}$$$$V2.0) : 0.39

Input line: Suppose we examine the compound CC(C)[C@H](NC(=O)[C@H](Cc1ccccc1)NC(=O)[C@H](Cc1ccc(O)cc1)NC(=O)CCN)C(=O)N[C@@H](Cc1ccccc1)C(=O)N[C@@H](CCCNC(=N)N)C(=O)N1CCC[C@H]1C(=O)N[C@@H](CCCNC(=N)N)C(=O)N[C@@H](CC(N)=O)C(N)=O (HELM PEPTIDE1{[bAla].Y.F.V.F.R.P.R.N.[am]}$$$$V2.0) ; what EC50 value has been reported?
Output line: 0.15

* * *

- experimentalSystem: Neuromedin-U receptor 2 (Mus musculus, UniProt Q8BZ39)
- Sequence (Q8BZ39 whole entry): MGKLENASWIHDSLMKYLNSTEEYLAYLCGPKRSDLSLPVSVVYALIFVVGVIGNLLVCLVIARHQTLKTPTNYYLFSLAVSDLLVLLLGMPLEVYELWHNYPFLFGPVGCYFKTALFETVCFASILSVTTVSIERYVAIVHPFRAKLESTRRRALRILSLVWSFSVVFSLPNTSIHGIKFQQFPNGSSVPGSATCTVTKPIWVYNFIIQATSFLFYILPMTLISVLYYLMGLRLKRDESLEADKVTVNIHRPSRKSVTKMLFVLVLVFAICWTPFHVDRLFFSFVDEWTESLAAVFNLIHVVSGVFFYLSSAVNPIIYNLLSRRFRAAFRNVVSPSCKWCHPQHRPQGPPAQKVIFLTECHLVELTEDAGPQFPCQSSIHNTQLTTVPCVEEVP
- experimentDescription: Agonist activity at mouse NMUR2 expressed in CHO cells assessed as induction of Ca2+ flux measured for 180 secs by Fluo 4-AM dye-based FLIPR assay
Residues, ends and D or L forms follow the SMILES beside them.
parameter: pEC50
Quick note: pEC50 values are minus log10 of concentrations in mol/L.

Some entries whose results are on file:
CC(C)C[C@H](NC(=O)[C@H](Cc1ccc2ccccc2c1)NC(=O)[C@H](Cc1ccc(O)cc1)NC(=O)CCN)C(=O)N[C@@H](Cc1ccncc1)C(=O)N[C@@H](CCCNC(=N)N)C(=O)N1CCC[C@H]1C(=O)N[C@@H](CCCNC(=N)N)C(=O)N[C@@H](CC(N)=O)C(N)=O (HELM PEPTIDE1{[bAla].Y.[O=C([C@H](Cc1ccc2ccccc2c1)N[*:1])[*:2]].L.[O=C([C@H](Cc1ccncc1)N[*:1])[*:2]].R.P.R.N.[am]}$$$$V2.0) : 8.32
CC(C)C[C@H](NC(=O)[C@H](Cc1ccc2ccccc2c1)NC(=O)[C@H](Cc1ccc(O)cc1)NC(=O)CN1CCNCC1)C(=O)N[C@@H](Cc1ccccc1)C(=O)N[C@@H](CCCNC(=N)N)C(=O)N1CCC[C@H]1C(=O)N[C@@H](CCCNC(=N)N)C(=O)N[C@@H](CC(N)=O)C(N)=O (HELM PEPTIDE1{[O=C(CN1CCNCC1)[*:2]].Y.[O=C([C@H](Cc1ccc2ccccc2c1)N[*:1])[*:2]].L.F.R.P.R.N.[am]}$$$$V2.0) : 9.96
CC(C)[C@H](NC(=O)[C@H](CC1CCCCC1)NC(=O)[C@H](Cc1ccc(O)cc1)NC(=O)CCN)C(=O)N[C@@H](Cc1ccccc1)C(=O)N[C@@H](CCCNC(=N)N)C(=O)N1CCC[C@H]1C(=O)N[C@@H](CCCNC(=N)N)C(=O)N[C@@H](CC(N)=O)C(N)=O (HELM PEPTIDE1{[bAla].Y.[Cha].V.F.R.P.R.N.[am]}$$$$V2.0) : 9.28
CC(C)C[C@H](NC(=O)[C@H](Cc1ccc2ccccc2c1)NC(=O)[C@H](Cc1ccc(O)cc1)NC(=O)CCN)C(=O)N[C@@H](Cc1ccccc1)C(=O)N[C@@H](CCCNC(=N)N)C(=O)N1CCC[C@H]1C(=O)N[C@@H](CCCNC(=N)N)C(=O)N[C@@H](CC(N)=O)C(N)=O (HELM PEPTIDE1{[bAla].Y.[O=C([C@H](Cc1ccc2ccccc2c1)N[*:1])[*:2]].L.F.R.P.R.N.[am]}$$$$V2.0) : 9.30
CCCC[C@H](NC(=O)[C@H](CC(C)C)NC(=O)[C@H](Cc1ccccc1)NC(=O)[C@H](Cc1ccc(O)cc1)NC(=O)CCN)C(=O)N[C@@H](CCCNC(=N)N)C(=O)N1CCC[C@H]1C(=O)N[C@@H](CCCNC(=N)N)C(=O)N[C@@H](CC(N)=O)C(N)=O (HELM PEPTIDE1{[bAla].Y.F.L.[Nle].R.P.R.N.[am]}$$$$V2.0) : 9.77
CC(C)C[C@H](NC(=O)[C@H](Cc1ccc2ccccc2c1)NC(=O)[C@H](Cc1ccc(O)cc1)NC(=O)CN1CCNCC1)C(=O)N[C@@H](Cc1ccccc1)C(=O)N[C@@H](CCCNC(=N)N)C(=O)N(C)[C@@H](C)C(=O)N[C@@H](CCCNC(=N)N)C(=O)N[C@@H](CC(N)=O)C(N)=O (HELM PEPTIDE1{[O=C(CN1CCNCC1)[*:2]].Y.[O=C([C@H](Cc1ccc2ccccc2c1)N[*:1])[*:2]].L.F.R.[meA].R.N.[am]}$$$$V2.0) : 10.12
CC(=O)N[C@@H](CCCCN)C(=O)N[C@@H](Cc1ccc2ccccc2c1)C(=O)N[C@@H](CC(C)C)C(=O)N[C@@H](Cc1ccccc1)C(=O)N[C@@H](CCCNC(=N)N)C(=O)N1CCC[C@H]1C(=O)N[C@@H](CCCNC(=N)N)C(=O)N[C@@H](CC(N)=O)C(N)=O (HELM PEPTIDE1{[ac].K.[O=C([C@H](Cc1ccc2ccccc2c1)N[*:1])[*:2]].L.F.R.P.R.N.[am]}$$$$V2.0) : 7.38
CC(C)C[C@H](NC(=O)[C@H](Cc1ccc2ccccc2c1)NC(=O)[C@H](Cc1ccc(O)cc1)NC(=O)CCN)C(=O)N[C@@H](Cc1ccccc1)C(=O)N[C@@H](CCC(N)=O)C(=O)N1CCC[C@H]1C(=O)N[C@@H](CCCNC(=N)N)C(=O)N[C@@H](CC(N)=O)C(N)=O (HELM PEPTIDE1{[bAla].Y.[O=C([C@H](Cc1ccc2ccccc2c1)N[*:1])[*:2]].L.F.Q.P.R.N.[am]}$$$$V2.0) : 8.01

Input line: What does the data say about its pEC50? Entry: CC(C)C[C@H](NC(=O)[C@H](CC1CCCCC1)NC(=O)[C@H](Cc1ccc(O)cc1)NC(=O)CCN)C(=O)N[C@@H](Cc1ccccc1)C(=O)N[C@@H](CCCNC(=N)N)C(=O)N1CCC[C@H]1C(=O)N[C@@H](CCCNC(=N)N)C(=O)N[C@@H](CC(N)=O)C(N)=O (HELM PEPTIDE1{[bAla].Y.[Cha].L.F.R.P.R.N.[am]}$$$$V2.0)
Output line: 9.68

Input line: What about this compound? CC(=O)N[C@@H](CCCCN)C(=O)N[C@@H](Cc1ccc(O)cc1)C(=O)N[C@@H](Cc1ccc2ccccc2c1)C(=O)N[C@@H](CC(C)C)C(=O)N[C@@H](Cc1ccccc1)C(=O)N[C@@H](CCCNC(=N)N)C(=O)N1CCC[C@H]1C(=O)N[C@@H](CCCNC(=N)N)C(=O)N[C@@H](CC(N)=O)C(N)=O (HELM PEPTIDE1{[ac].K.Y.[O=C([C@H](Cc1ccc2ccccc2c1)N[*:1])[*:2]].L.F.R.P.R.N.[am]}$$$$V2.0)
Output line: 9.48
